The measured values listed here are drawn from ChEMBL document CHEMBL1155124.

Target: P2X purinoceptor 7 (Homo sapiens, UniProt Q99572)
Sequence (Q99572 whole entry): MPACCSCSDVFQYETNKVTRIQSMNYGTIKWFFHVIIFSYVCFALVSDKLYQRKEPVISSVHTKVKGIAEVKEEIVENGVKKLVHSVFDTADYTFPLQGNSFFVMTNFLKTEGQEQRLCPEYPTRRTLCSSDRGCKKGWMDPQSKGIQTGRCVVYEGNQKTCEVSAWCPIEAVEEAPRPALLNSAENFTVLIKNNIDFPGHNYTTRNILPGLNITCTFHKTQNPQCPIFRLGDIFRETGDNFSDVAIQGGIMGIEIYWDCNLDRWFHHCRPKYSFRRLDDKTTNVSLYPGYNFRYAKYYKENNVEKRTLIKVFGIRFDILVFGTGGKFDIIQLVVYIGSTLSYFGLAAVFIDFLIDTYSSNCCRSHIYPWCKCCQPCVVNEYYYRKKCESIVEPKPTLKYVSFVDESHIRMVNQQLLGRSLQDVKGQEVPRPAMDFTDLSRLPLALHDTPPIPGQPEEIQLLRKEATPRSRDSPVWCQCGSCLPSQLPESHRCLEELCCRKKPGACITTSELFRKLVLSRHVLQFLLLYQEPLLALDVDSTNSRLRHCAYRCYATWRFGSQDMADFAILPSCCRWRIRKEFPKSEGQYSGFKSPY
Experiment: Antagonist activity at human recombinant P2X7 receptor assessed as inhibition of BzATP induced calcium flux by FLIPR assay
endpointLabel: IC50 (nM)

Cn1cnc2c(N=C(NC#N)N3CCN(C(=O)Nc4ccc(Cl)cc4)C(c4ccccc4)C3)cccc21 (centres undefined): 1660

P: Cc1ccccc1N/C(=C/[N+](=O)[O-])N1CCN(C(=O)Nc2ccc(Cl)cc2)C(c2ccccc2)C1 (centres undefined)
Q: CC(C)C1CN(C(=O)Nc2cccc(F)c2)CCN1C(=Nc1cccc2c1CCCN2)NC#N (centres undefined)
R: COc1ccc(NC(=O)N2CCN(C(=Nc3ccccc3C)NC#N)CC2c2ccccc2)cc1OC (centres undefined)
Please list these in order of increasing IC50. Thank you! // list labels; follow requested order
R, Q, P

----------
system: Blood; test: Inhibition of IL1-beta release in LPS/ATP stimulated human whole blood; assay type: functional, tissue-based
endpointLabel: IC50 (nM)

Solved entries:
Cc1ccc2c(N/C(=N\C#N)N3CCN(C(=O)Nc4ccc(Cl)cc4)CC3C(C)C)cccc2n1 (stereo unspecified): 120
CC(C)C1CN(C(=O)Nc2ccc(Cl)cc2)CCN1/C(=N/C#N)Nc1cccc2nc(F)ccc12 (stereo unspecified): 2640

a: Cc1ccccc1N=C(NC#N)N1CCN(C(=O)Nc2ccc(Cl)cc2)C(c2ccccc2)C1 (stereo unspecified)
b: N#CNC(=Nc1cccc2[nH]ccc12)N1CCN(C(=O)Nc2ccc(Cl)cc2)C(c2ccccc2)C1 (stereo unspecified)
Record comparison, field IC50: mark the lower of a and b . Mark your answer with the label of the selected entry.
a
(a: 1190 nM, b: 12200 nM)

----------
test: Metabolic stability in rat liver microsomes assessed as compound remaining after 25 mins; assay type: ADME, Microsome; details: read-out: Stability
endpointLabel: remaining at 25 min (%)
# number only, unit % dropped from output

Request the reported remaining at 25 min associated with CC(C)C1CN(C(=O)Nc2ccc(Cl)cc2)CCN1C(=Nc1cccc2ncccc12)NC#N (stereo unspecified)
43

----------
target: P2X purinoceptor 7 (Homo sapiens); experiment: Antagonist activity at human recombinant P2X7 receptor assessed as inhibition of BzATP induced calcium flux by FLIPR assay
endpointLabel: IC50 (nM)

A: CC(C)C1CN(C(=O)Nc2cccc(F)c2)CCN1C(=Nc1cccc2[nH]ncc12)NC#N (centres undefined)
B: Cc1ccccc1N/C(=N/C(N)=O)N1CCN(C(=O)Nc2ccc(Cl)cc2)C(c2ccccc2)C1 (centres undefined)
When the recorded IC50 values are compared, which is smaller: that of A or that of B ? Your answer should be the label of the entry you select.
A
